List of melting point values.
OBSERVABLE: melting point

{"MOLECULE": "COC(=O)c1cc(C(F)(F)F)ccc1N", "RECORDED_RESULT": "51 to 52 °C"}
{"MOLECULE": "COc1ccc2c(c1)Sc1cc(OC)ccc1N2", "RECORDED_RESULT": "194 to 196 °C"}
{"MOLECULE": "COc1ccc(C2C(C(=O)c3ccc(C(C)C)cc3)=C(O)C(=O)N2c2ccc(C)nn2)cc1 (stereo not given)", "RECORDED_RESULT": "263 to 267 °C"}
{"MOLECULE": "CCn1cc(C(=O)OCC(=O)OCC2CCCCC2)c(=O)c2ccc(C)nc21", "RECORDED_RESULT": "130 to 132 °C"}
{"MOLECULE": "COc1ccc2c(c1)-c1c(C#N)c(N3CCCCC3)c3c(c1C2)-c1ccccc1C3", "RECORDED_RESULT": "216 to 218 °C"}
{"MOLECULE": "CCCCSc1nc2c(cc1C#N)C(=O)CC(C)(C)C2", "RECORDED_RESULT": "50 to 52 °C"}
{"MOLECULE": "CCCCC(=O)Nc1ccc(C(=O)Nc2ccc3cc(CN4CCCC4)cnc3c2C)cc1", "RECORDED_RESULT": "206 to 207 °C"}
{"MOLECULE": "CCSc1ncccc1C(=O)N1CCC(=O)c2ccc(Cl)cc21", "RECORDED_RESULT": "120 to 123 °C"}
{"MOLECULE": "O=C(Nc1ccc(-n2nc(C(F)(F)F)cc2C(F)(F)F)cc1)c1ccc(F)c(Cl)c1", "RECORDED_RESULT": "138 to 139 °C"}
{"MOLECULE": "O=C(Nc1ccc(N2C[C@H]3CN(C(=O)OCc4ccccc4)C[C@H]3C2)cc1)OCc1ccccc1", "RECORDED_RESULT": "145 to 146 °C"}
{"MOLECULE": "CCn1nnc(C(C=CC=O)=C(c2ccc(F)cc2)c2ccc(F)cc2)n1", "RECORDED_RESULT": "117 to 120 °C"}
{"MOLECULE": "COc1cc2c(cc1OC)CN(CC(=O)Nc1ccc([N+](=O)[O-])cc1)CC2", "RECORDED_RESULT": "173 to 178 °C"}
{"MOLECULE": "COC(=O)C1(Oc2cc(-n3c(=O)cc(C(F)(F)F)n(C)c3=O)c(F)cc2Cl)CC=CNC1=O (stereo not given)", "RECORDED_RESULT": "82.4 °C"}
{"MOLECULE": "CC(C)(CCCCC(=O)CCCCC1(C(=O)O)CC1)C(=O)O", "RECORDED_RESULT": "49 to 52 °C"}
{"MOLECULE": "Cc1nnc(Cl)c(-c2c(F)cc(OCCCN(C)C)cc2F)c1-c1ccc(Cl)cc1", "RECORDED_RESULT": "112 to 113 °C"}
{"MOLECULE": "CCCn1c(=O)[nH]c(Cl)c(-c2ccccc2)c1=O", "RECORDED_RESULT": "230 to 231 °C"}
{"MOLECULE": "O=C1c2ccccc2C(=O)N1OCc1c[nH]cn1", "RECORDED_RESULT": "163 to 165 °C"}
{"MOLECULE": "CCc1ccc(C(=O)N[C@@H]2CCc3cccc(N4CCN(C)CC4)c3C2)cc1", "RECORDED_RESULT": "177 to 178 °C"}
{"MOLECULE": "CCCCCC(=O)N(Cc1ccccc1)c1nc(C)ns1", "RECORDED_RESULT": "72 °C"}
{"MOLECULE": "CCCC1=C(C(=O)OCC)C(c2ccccc2OCC)c2c[nH]nc2N1 (stereo not given)", "RECORDED_RESULT": "203 °C"}

Data credit: a melting point compilation (Tetko et al.; mined from patent text by program, amines drawn as free bases though some values may be those of a salt)
